# target-or-test-system: panel of 442 kinases (Homo sapiens)
# Construct: purchased KINOMEscan
# Format: binding
# settings: Compound Concentration 10 µM
# Source text: We assessed the selectivity of members of this scaffold using the KINOMEscan methodology across a near comprehensive panel of 442 kinases [[18,27]].
attribute-measured: KINOMEscan: GSK3B

Form: compound = COc1cc(C(=O)N2CCC(N3CCN(C)CC3)CC2)ccc1Nc1ncc2c(n1)N(C1CCCC1)c1ccccc1C(=O)N2C ; KINOMEscan: GSK3B = 80

Form: compound = COc1cc(C(=O)N2CCC(N3CCN(C)CC3)CC2)ccc1Nc1ncc2c(n1)N1CCc3cccc(c31)C(=O)N2C ; KINOMEscan: GSK3B = 72

Form: compound = COc1cc(C(=O)N2CCC(N3CCN(C)CC3)CC2)ccc1Nc1ncc2c(n1)N(C)c1ccccc1C(=O)N2C ; KINOMEscan: GSK3B = 88

Form: compound = CCOc1cc(C(=O)N2CCC(N3CCN(C)CC3)CC2)ccc1Nc1ncc2c(n1)N(C1CCCC1)c1ccccc1C(=O)N2C ; KINOMEscan: GSK3B = 98

* * *

# target-or-test-system: panel of 442 kinases (Homo sapiens, UniProt P22455)
# Construct: purchased KINOMEscan
# Sequence (P22455 22-802): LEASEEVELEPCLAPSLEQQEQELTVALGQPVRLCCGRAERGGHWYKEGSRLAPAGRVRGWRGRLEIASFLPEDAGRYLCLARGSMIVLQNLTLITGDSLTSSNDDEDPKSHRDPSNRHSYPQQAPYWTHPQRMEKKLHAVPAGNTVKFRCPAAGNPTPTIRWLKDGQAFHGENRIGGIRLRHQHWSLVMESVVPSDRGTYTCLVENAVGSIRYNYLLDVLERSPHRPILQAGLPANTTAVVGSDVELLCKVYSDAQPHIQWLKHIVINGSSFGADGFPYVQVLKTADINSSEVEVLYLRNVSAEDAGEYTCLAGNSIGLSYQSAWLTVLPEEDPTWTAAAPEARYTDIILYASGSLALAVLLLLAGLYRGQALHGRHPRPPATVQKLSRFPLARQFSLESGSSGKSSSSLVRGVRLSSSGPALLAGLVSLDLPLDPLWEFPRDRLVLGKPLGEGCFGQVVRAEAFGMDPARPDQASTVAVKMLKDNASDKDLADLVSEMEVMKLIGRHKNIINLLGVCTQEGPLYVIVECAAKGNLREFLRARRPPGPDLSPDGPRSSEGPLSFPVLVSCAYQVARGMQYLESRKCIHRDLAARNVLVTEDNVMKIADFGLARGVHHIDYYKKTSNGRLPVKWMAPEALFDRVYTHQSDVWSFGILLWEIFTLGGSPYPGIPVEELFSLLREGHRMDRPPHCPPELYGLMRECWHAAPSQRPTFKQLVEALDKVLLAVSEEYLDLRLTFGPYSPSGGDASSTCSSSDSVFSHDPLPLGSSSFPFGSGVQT
# Type: binding
# settings: Compound Concentration 10 µM
# Description: We assessed the selectivity of members of this scaffold using the KINOMEscan methodology across a near comprehensive panel of 442 kinases [[18,27]].
attribute-measured: KINOMEscan: FGFR4
Just the number, please, no unit attached.

KINOMEscan: FGFR4 value, target or system panel of 442 kinases (Homo sapiens, UniProt P22455), for COc1cc(C(=O)N2CCC(N3CCN(C)CC3)CC2)ccc1Nc1ncc2c(n1)N(C1CCCC1)c1ccccc1C(=O)N2C : 75

KINOMEscan: FGFR4 value, target or system panel of 442 kinases (Homo sapiens, UniProt P22455), for COc1cc(C(=O)N2CCC(N3CCN(C)CC3)CC2)ccc1Nc1ncc2c(n1)N1CCc3cccc(c31)C(=O)N2C : 23

KINOMEscan: FGFR4 value, target or system panel of 442 kinases (Homo sapiens, UniProt P22455), for COc1cc(C(=O)N2CCC(N3CCN(C)CC3)CC2)ccc1Nc1ncc2c(n1)N(C)c1ccccc1C(=O)N2C : 28

KINOMEscan: FGFR4 value, target or system panel of 442 kinases (Homo sapiens, UniProt P22455), for CCOc1cc(C(=O)N2CCC(N3CCN(C)CC3)CC2)ccc1Nc1ncc2c(n1)N(C1CCCC1)c1ccccc1C(=O)N2C : 100

* * *

# target-or-test-system: panel of 442 kinases (Homo sapiens)
# Construct: purchased KINOMEscan
# Type: binding
# settings: Compound Concentration 10 µM
Field: KINOMEscan: PLK2. Provide a value for each of the compounds that follow.
Just the number, please, no unit attached.

Form: compound = COc1cc(C(=O)N2CCC(N3CCN(C)CC3)CC2)ccc1Nc1ncc2c(n1)N(C1CCCC1)c1ccccc1C(=O)N2C [Compound 25] ; KINOMEscan: PLK2 = 100

Form: compound = CCOc1cc(C(=O)N2CCC(N3CCN(C)CC3)CC2)ccc1Nc1ncc2c(n1)N(C1CCCC1)c1ccccc1C(=O)N2C [Compound 26] ; KINOMEscan: PLK2 = 97

Form: compound = COc1cc(C(=O)N2CCC(N3CCN(C)CC3)CC2)ccc1Nc1ncc2c(n1)N(C)c1ccccc1C(=O)N2C [15 (LRRK2-IN-1)] ; KINOMEscan: PLK2 = 100

Form: compound = COc1cc(C(=O)N2CCC(N3CCN(C)CC3)CC2)ccc1Nc1ncc2c(n1)N1CCc3cccc(c31)C(=O)N2C [Compound 24] ; KINOMEscan: PLK2 = 8.8

Cited source for all entries: paper PMC3914206
